testMethodNotes: inhibitors of TNFa-induced NFkB p65 translocation, primary screen, imaging, HUVEC, MLSMR starter and 10KST1 sets (AID 438);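 note: compound added about 3h40 before a 20 min TNFalpha stimulation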
appliedConditions: HUVEC TNFa-induced p65 nuclear translocation; measured here: nuclei count (cytotoxicity indicator), at 2.08 µM
Catalogue of cell count values
metricName: cell count

[[record]]
compound = "c1cc2c(cc1C1=Nn3c(nnc3C3CCCCC3)SC1)OCO2"
datavalue = 636

[[record]]
compound = "Cc1nnc(SCCC#N)n(CCC#N)c1=O"
datavalue = 585

[[record]]
compound = "Cc1nc2n[nH]c(N)c2c2c1COC(C)(C)C2"
datavalue = 674

[[record]]
compound = "CSc1nnc(C)c(=O)[nH]1"
datavalue = 627

[[record]]
compound = "C=CCn1c(SCc2c(F)c(F)c(F)c(F)c2F)nc(O)cc1=O"
datavalue = 615

[[record]]
compound = "Cc1oc2cc(O)cc(C)c2c(=O)c1-c1cnn(-c2ccccc2)c1"
datavalue = 578

[[record]]
compound = "CCCc1cc(=O)oc2c(CN3CCCC3)c(O)c(Cl)cc12"
datavalue = 371

[[record]]
compound = "O=C(NCc1ccco1)c1ccc(=O)oc1"
datavalue = 352

[[record]]
compound = "CCc1ccccc1NC(=O)CSC1=C(C#N)C(c2ccc(O)c(OC)c2)C2=C(CCCC2=O)N1 (configuration not stated)"
datavalue = 554

[[record]]
compound = "O=C1C=C(O)CC(c2cccs2)C1 (configuration not stated)"
datavalue = 590

[[record]]
compound = "CCOC(=O)c1ccc(N=Cc2nc(-c3ccccc3)oc2OC(C)=O)cc1"
datavalue = 794

[[record]]
compound = "Cn1c(=O)cc(NCc2ccccc2)[nH]c1=O"
datavalue = 451

